Numbers sourced from patent US20210380703A1.

Each entry below carries its recorded optical density.
assayed-target: T1, mouse ACVR2A (mouse, UniProt P27038 20-135, limits assumed); also: test concentration or dose not given here
T1 construct: coated antigen of the initial ELISA
T1 sequence (P27038 20-135 limits assumed): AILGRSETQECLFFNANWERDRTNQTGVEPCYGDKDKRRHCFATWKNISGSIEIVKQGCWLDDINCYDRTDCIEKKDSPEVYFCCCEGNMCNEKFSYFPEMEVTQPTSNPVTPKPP
test-description: ELISA
Quick reminder: number only, in OD, skip the unit.

Examples with answers:
{"columns": ["binder", "optical density (OD)"],
 "data": [
  ["371_D02 (antibody, V domains shown, Group III) VH: EVQLLESGGGLVQPGGSLRLSCAASGFTFDDYSMNWVRQAPGKGLEWVAGINYNGGYKSYADSVKGRFTISRDNSKNTLYLQMNSLRAEDTAVYYCARGANWHDTALDYWGQGTLVTVSS VL: DIQMTQSPSSLSASVGDRVTITCRASQSIVTYLNWYQQKPGKAPKLLIYAATSRASGVPSRFSGSGSGTDFTLTISSLQPEDFATYYCQQSYDSPLTFGGGTKVEIK", 2.99],
  ["373_H03 (antibody, V domains shown, Group III) VH: EVQLLESGGGLVQPGGSLRLSCAASGFTFSSYSMNWVRQAPGKGLEWVSGINYNSGYKSYADSVKGRFTISRDNSKNTLYLQMNSLRAEDTAVYYCARGANWHDTALDYWGQGTLVTVSS VL: DIQMTQSPSSLSASVGDRVTITCRASQSILSYLNWYQQKPGKAPKLLIYATTSRASGVPSRFSGSGSGTDFTLTISSLQPEDFATYYCQQSYENPLTFGGGTKVEIK", 3.29],
  ["375_C04 (antibody, V domains shown, Group III) VH: EVQLLESGGGLVQPGGSLRLSCAASGFTFSDYSMNWVRQAPGKGLEWVAGINYNGGYTSYADSVKGRFTISRDNSKNTLYLQMNSLRAEDTAVYYCARGANWHDTALDYWGQGTLVTVSS VL: DIQMTQSPSSLSASVGDRVTITCRASQSILTYLNWYQQKPGKAPKLVIYAATSRASGVPSRFSGSGSGTDFTLTISSLQPEDFATYYCQQSYESPLTFGGGTKVEIK", 3.67],
  ["375_A01 (antibody, V domains shown, Group III) VH: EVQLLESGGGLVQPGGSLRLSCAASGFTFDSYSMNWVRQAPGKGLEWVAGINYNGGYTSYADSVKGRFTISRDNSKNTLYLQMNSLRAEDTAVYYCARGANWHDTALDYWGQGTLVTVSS VL: DIQMTQSPSSLSASVGDRVTITCRASQSILSYLNWYQQKPGKAPKLVIYAATSRASGVPSRFSGSGSGTDFTLTISSLQPEDFATYYCQQSYNTPLTFGGGTKVEIK", 3.68]
]}

Please examine the following record next.
Any idea what its optical density is? The binder is 375_G05 (antibody, V domains shown, Group III) VH: EVQLLESGGGLVQPGGSLRLSCAASGFTFSSYSMNWVRQAPGKGLEWVAGINYNGGYTSYADSVKGRFTISRDNSKNTLYLQMNSLRAEDTAVYYCARGANWHDTALDYWGQGTLVTVSS VL: DIQMTQSPSSLSASVGDRVTITCRASQSIVSYLNWYQQKPGKAPKLLIYAVTSRASGVPSRFSGSGSGTDFTLTISSLQPEDFATYYCQQSYDSPLTFGGGTKVEIK 3.75
